List of percentage of B7-H2 binding activity (of ICOSIg) values.
assayed-system: T1, B7-H2mIg (extracellular domain of human B7-H2 linked to mouse IgG2a Fc portion) (human, UniProt O75144 19-256)
T1 sequence: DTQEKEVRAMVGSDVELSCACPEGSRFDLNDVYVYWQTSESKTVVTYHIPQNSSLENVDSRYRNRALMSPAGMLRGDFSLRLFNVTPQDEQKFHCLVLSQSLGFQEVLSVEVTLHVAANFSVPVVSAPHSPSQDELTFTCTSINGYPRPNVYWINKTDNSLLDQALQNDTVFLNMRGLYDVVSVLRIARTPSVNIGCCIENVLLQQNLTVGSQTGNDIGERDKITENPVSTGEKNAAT
assay-name: ELISA
Expressed in %, but write only the number.

Please list percentage of B7-H2 binding activity (of ICOSIg) recorded for the binder ICOSIg (extracellular domain of human ICOS fused to the CH2-CH3 portion of human IgG1) (Fc fusion) EINGSANYEMFIFHNGGVQILCKYPDIVQQFKMQLLKGGQILCDLTKTKGSGNTVSIKSLKFCHSQLSNNSVSFFLYNLDHSHANYYFCNLSIFDPPPFKVTLTGGYLHIYESQLCCQLK 100

For the binder ICOSIg mutant D64S (Fc fusion) EINGSANYEMFIFHNGGVQILCKYPDIVQQFKMQLLKGGQILCSLTKTKGSGNTVSIKSLKFCHSQLSNNSVSFFLYNLDHSHANYYFCNLSIFDPPPFKVTLTGGYLHIYESQLCCQLK , report percentage of B7-H2 binding activity (of ICOSIg). 6
